// values below are reported T/C
# Test system: CD2F1 mice, L1210 leukemia ip, survival T/C
# protocol.description: NCI In Vivo Anticancer Drug Screen. Data for tumor model L1210 Leukemia (intraperitoneal) in CD2F1 (CDF1) mice
# setup.conditions: endpoint: mean survival time; dose: 200.0 mg/kg/injection; schedule: Q04DX002 (ip); vehicle: saline with Tween-80; higher = longer survival
Toxic doses and inconclusive results are not listed.

Check out these entries, answers already filled in.
[
  {
    "compound": "CCCCCCCC/C=C\\CCCCCCCC(=O)OCCCCC",
    "quantity.measured": "T/C",
    "measured": "95 % of control"
  },
  {
    "compound": "CN1C(=O)C(C(O)(c2ccccc2)c2ccccc2)C1c1ccccc1 (configuration not stated)",
    "quantity.measured": "T/C",
    "measured": "96 % of control"
  },
  {
    "compound": "O=C(O)Cc1cc(O)c(CC(=O)O)cc1O",
    "quantity.measured": "T/C",
    "measured": "95 % of control"
  },
  {
    "compound": "CC(C)C(NC(=O)c1cccnc1)C(=O)O (configuration not stated)",
    "quantity.measured": "T/C",
    "measured": "104 % of control"
  },
  {
    "compound": "O=C(O)C1CCc2c(cnn2-c2ccccc2)C1 (configuration not stated)",
    "quantity.measured": "T/C",
    "measured": "100 % of control"
  },
  {
    "compound": "CC1CCC2(OC1)OC1CC3C4CCC5(C)CC(=O)CCC5(C)C4CCC3(C)C1C2C (configuration not stated)",
    "quantity.measured": "T/C",
    "measured": "86 % of control"
  },
  {
    "compound": "CC1C(=O)OC2C1CCC1(C)C(O)OC(=O)C3(O)OC231 (configuration not stated)",
    "quantity.measured": "T/C",
    "measured": "96 % of control"
  },
  {
    "compound": "O=C(OCC(OC(=O)c1ccccc1)C(OC(=O)c1ccccc1)C(O)C(O)CO)c1ccccc1 (configuration not stated) (tested in a mixture with another compound)",
    "quantity.measured": "T/C",
    "measured": "100 % of control"
  },
  {
    "compound": "O=C(O)c1c(Sc2ccccc2)cccc1Sc1ccccc1",
    "quantity.measured": "T/C",
    "measured": "95 % of control"
  },
  {
    "compound": "COc1ccc(NC(C)=O)c(O)c1OC",
    "quantity.measured": "T/C",
    "measured": "106 % of control"
  }
]

Incoming: Which T/C reading was recorded for the compound `COc1cc(-c2ccncc2)nc(OC)n1` ?
Outgoing: 88 % of control

Incoming: Value lookup for T/C; key = NC(=S)N/N=C1\CC2CC1C1C=CCC21 (configuration not stated)
Outgoing: 98 % of control

* * *

// T/C lookup, one value per entry
# Test system: CD2F1 mice, L1210 leukemia ip, survival T/C
# protocol.description: NCI In Vivo Anticancer Drug Screen. Data for tumor model L1210 Leukemia (intraperitoneal) in CD2F1 (CDF1) mice
# setup.conditions: endpoint: mean survival time; dose: 100.0 mg/kg/injection; schedule: Q01DX005 (ip); vehicle: other; higher = longer survival
Inconclusive results and toxic doses are left out.

Example molecules with recorded T/C:
[
  {
    "molecule": "CSc1ncnc2c1c1c(N)ncnc1n2C1OC(CO)C(O)C1O (stereo not given)",
    "measured": "103 % of control"
  },
  {
    "molecule": "Cn1c(=O)c2[nH]c(-c3ccccc3[N+](=O)[O-])nc2n(C)c1=O",
    "measured": "96 % of control"
  },
  {
    "molecule": "Cn1c(=O)c2[nH]c(-c3ccc(Cl)cc3)nc2n(C)c1=O",
    "measured": "89 % of control"
  },
  {
    "molecule": "COc1cc2c(cc1OC)-c1c(cnn1C1OC(COC(C)=O)C(OC(C)=O)C(OC(C)=O)C1OC(C)=O)CC2 (stereo not given)",
    "measured": "87 % of control"
  }
]

Now consider a different molecule.
Incoming: Which value of T/C has been reported for `CCOC(=O)C(CCC(=O)OC)(CCC(=O)OC)C(=O)OCC` in the records?
Outgoing: 95 % of control

* * *

# Tested on: CD2F1 mice, L1210 leukemia ip, survival T/C
# protocol.description: NCI In Vivo Anticancer Drug Screen. Data for tumor model L1210 Leukemia (intraperitoneal) in CD2F1 (CDF1) mice
# setup.conditions: endpoint: mean survival time; dose: 25.0 mg/kg/injection; schedule: Q01DX001 (ip); vehicle: saline; higher = longer survival
Inconclusive results and toxic doses are left out.
quantity.measured: T/C

Some solved cases for reference:
[
  {
    "molecule": "CC1CCC(C)C([N+](C)(C)C)C1 (centres undefined)",
    "T/C": "110 % of control"
  },
  {
    "molecule": "O=C(C[n+]1ccccc1)c1ccccc1",
    "T/C": "102 % of control"
  },
  {
    "molecule": "COC(CNCCO)c1ccccc1 (centres undefined)",
    "T/C": "97 % of control"
  }
]

Incoming: Can you look up T/C on CD2F1 mice, L1210 leukemia ip, survival T/C for C=CCCC(Cc1ccccc1)C1=NC(C)(C)CC(C)O1 (centres undefined) ?
Outgoing: 97 % of control

* * *

# Tested on: CD2F1 mice, L1210 leukemia ip, survival T/C
# protocol.description: NCI In Vivo Anticancer Drug Screen. Data for tumor model L1210 Leukemia (intraperitoneal) in CD2F1 (CDF1) mice
# setup.conditions: endpoint: mean survival time; dose: 200.0 mg/kg/injection; schedule: Q04DX003 (ip); vehicle: Klucel (hydroxypropylcellulose) (HPC); higher = longer survival
Inconclusive results and toxic doses are left out.
quantity.measured: T/C

Incoming: Which T/C value is on record for `NC(=O)Cc1c(Cl)n(-c2ccccc2)c2ccccc12` ?
Outgoing: 95 % of control

Incoming: Recorded T/C for `[O-][n+]1c2c(cc3ccccc31)Cc1ccccc1-2` , please?
Outgoing: 96 % of control

Incoming: I would be grateful if you could share the reported T/C for `O=C(O)CCCCCCCCC#CC#CCCCc1ccccc1` .
Outgoing: 95 % of control

Incoming: So what's the measured T/C for this one? `COc1ccc(/C=N/N=C/c2ccc(OC)cc2)cc1`
Outgoing: 100 % of control

Incoming: What value of T/C has been reported for the following compound? `CC(=O)OCc1cc(C(C)(C)C)c(O)c(C(C)(C)C)c1`
Outgoing: 116 % of control

Incoming: Look up T/C for this compound: `CN(C)/N=N/c1nc[nH]c1C(N)=O`
Outgoing: 123 % of control

Incoming: May I ask what T/C has been recorded for `O=C(COc1ccccc1)N(/N=C/c1ccccc1)C(=O)c1ccccc1` ?
Outgoing: 92 % of control

* * *

# Tested on: CD2F1 mice, L1210 leukemia ip, survival T/C
# protocol.description: NCI In Vivo Anticancer Drug Screen. Data for tumor model L1210 Leukemia (intraperitoneal) in CD2F1 (CDF1) mice
# setup.conditions: endpoint: median survival time; dose: 25.0 mg/kg/injection; schedule: Q01DX005 (ip); vehicle: saline with Tween-80; higher = longer survival
Toxic doses and inconclusive results are not listed.
Listed compounds paired with reported T/C

Incoming: Which measured T/C value corresponds to Cc1ccc2c(c1)C1(SC(C)C(=O)N1c1ccc(Cl)cc1)C(=O)N2 (centres undefined) ?
Outgoing: 107 % of control

* * *

# Tested on: CD2F1 mice, L1210 leukemia ip, survival T/C
# protocol.description: NCI In Vivo Anticancer Drug Screen. Data for tumor model L1210 Leukemia (intraperitoneal) in CD2F1 (CDF1) mice
# setup.conditions: endpoint: mean survival time; dose: 50.0 mg/kg/injection; schedule: Q04DX003 (ip); vehicle: saline with Tween-80; higher = longer survival
Toxic doses and inconclusive results are not listed.
Each record here notes measured T/C.

Some solved entries appear below for comparison.
[
  {
    "substance.smiles": "c1ccc(OCCCNc2ccccn2)cc1",
    "T/C": "103 % of control"
  },
  {
    "substance.smiles": "Nc1nc(N)c2nc(-c3ccccc3)c(N)nc2n1",
    "T/C": "98 % of control"
  },
  {
    "substance.smiles": "COc1cc2ccc(CCN)cc2cc1OC",
    "T/C": "96 % of control"
  },
  {
    "substance.smiles": "O=Cc1cc(Cl)cc(Cl)c1O.O=Cc1cc(Cl)cc(Cl)c1O.[Co]",
    "T/C": "90 % of control"
  },
  {
    "substance.smiles": "Cc1ccc[n+](CCc2c[nH]c3ccccc23)c1",
    "T/C": "95 % of control"
  },
  {
    "substance.smiles": "CCN(CC)CCOc1ccc(/C(=C(\\Cl)c2ccccc2)c2ccccc2)cc1",
    "T/C": "100 % of control"
  },
  {
    "substance.smiles": "O=C1c2ccccc2C(=O)N1CCS(=O)(=O)Cl",
    "T/C": "98 % of control"
  },
  {
    "substance.smiles": "COc1cc(C=Nc2cc(Cl)ccc2-n2ccnc2C)ccc1N(CCCl)CCCl",
    "T/C": "118 % of control"
  }
]

Incoming: Looking for the measured T/C of `Cc1ccc(C(C)C)c(OCCCBr)c1` , can you help?
Outgoing: 95 % of control

Incoming: Which T/C reading was recorded for the molecule `N#CCc1ccc(Cl)c(Cl)c1` ?
Outgoing: 94 % of control

Incoming: Consider the molecule `CCOC(=O)Nc1cc2c3ccccc3ncc2c2ccccc12` and give its measured T/C.
Outgoing: 86 % of control

Incoming: Fill blank: measured T/C of the molecule `CCNC(=S)N(Cc1ccccc1)Cc1ccccc1` is ____.
Outgoing: 103 % of control

Incoming: Given the molecule `C1CC[N-]CC1.CC(=N\O)/C(C)=N/O.CC(=N\O)/C(C)=N/O.[CH2-]CCN1CCOCC1.[Co+2]` , what is its reported T/C?
Outgoing: 106 % of control
